Molecular target: GPR40 (Homo sapiens)
Construct: expressed in transfected cells; host or cells: HEK293 cells stably expressing GPR40 (Hygromycin selection)
Sequence (O14842 whole entry): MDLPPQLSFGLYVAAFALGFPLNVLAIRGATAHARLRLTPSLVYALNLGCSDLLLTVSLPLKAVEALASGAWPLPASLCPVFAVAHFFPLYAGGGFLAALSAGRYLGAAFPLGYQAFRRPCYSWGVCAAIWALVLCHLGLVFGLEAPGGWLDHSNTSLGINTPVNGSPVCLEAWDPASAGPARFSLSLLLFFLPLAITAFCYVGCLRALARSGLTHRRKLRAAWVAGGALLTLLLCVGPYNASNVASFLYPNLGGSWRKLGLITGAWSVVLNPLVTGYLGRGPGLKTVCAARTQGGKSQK
Test: IP1 accumulation assay in HEK293 cells stably expressing GPR40
Type: cell-based
Settings: IP1 accumulation, HEK293 cells stably expressing GPR40, 2 hours at 37° C., % effect relative to AMG-1638; table of Biological Example 1
Experimental: IP1 accumulation assay was used to evaluate the potency of compounds. […] Assay plate was incubated at room temperature for 60 min and then read at 665 nm/615 nm on an Envision plate reader (PerkinElmer). […] Dose curve was fitted and EC50 of each compound was calculated by using XLFit.
Quantity Measured: EC50 (nM)

{"columns": ["Compound", "EC50 [nM]"],
 "data": [
  ["COc1ccc(C(=O)N(CC(C)(C)CCn2cc(CCCCCCCCC(=O)NCC[N+](C)(CCC(=O)NCCN)CCC(=O)NCCN)nn2)c2cccc(C)n2)c(N2CCC(COc3cc([C@@H](CC(=O)O)C4CC4)ccn3)CC2)c1", 307],
  ["COc1ccc(C(=O)N(CC(C)(C)CCn2cc(CCCCCCCCCCCCCCCCC(=O)NCCC[N+](C)(CC(=O)[O-])CC(=O)O)nn2)c2cccc(C)n2)c(N2CCC(COc3cc([C@@H](CC(=O)O)C4CC4)ccn3)CC2)c1 (stereo partly drawn)", 0.08],
  ["COc1ccc(C(=O)N(CC(C)(C)CCCCCCn2cc(CCCCCCCCCCCCC(=O)NCCN(CC(=O)NCCN)CC(=O)NCCN)nn2)c2cccc(C)n2)c(N2CCC(COc3cc([C@@H](CC(=O)O)C4CC4)ccn3)CC2)c1", 0.44],
  ["COc1ccc(C(=O)N(CC(C)(C)CCn2cc(CCCCCCCCCCCCCCCC(=O)NCCN(CCC(=O)NCCN)CCC(=O)NCCN)nn2)c2cccc(C)n2)c(N2CCC(COc3cc([C@@H](CC(=O)O)C4CC4)ccn3)CC2)c1", 0.17]
]}

1 = COc1ccc(C(=O)N(CC(C)(C)CCn2cc(COCCOCCOCCOCCOCC(=O)NCCN(CCC(=O)NCCN)CCC(=O)NCCN)nn2)c2cccc(C)n2)c(N2CCC(COc3cc([C@@H](CC(=O)O)C4CC4)ccn3)CC2)c1
2 = COc1ccc(C(=O)N(CC(C)(C)CCn2cc(CCCCCCCCCCCCCC(=O)NCCN(CCC(=O)NCCN)CCC(=O)NCCN)nn2)c2cccc(C)n2)c(N2CCC(COc3cc([C@@H](CC(=O)O)C4CC4)ccn3)CC2)c1
3 = C[C@H](C(=O)O)[C@H](c1ccc2c(c1)O[C@@H](C1CCN(Cc3cc(-n4cc(CCCCCCCCCCCCCCCCCC(=O)NCC[N+](C)(CCC(=O)NCCN)CCC(=O)NCCN)nn4)ccc3OC(F)(F)F)CC1)CC2)C1CC1
4 = COc1ccc(F)c(-c2ccc(COc3cccc([C@@H](CC(=O)O)C4CC4)c3)cc2CC(C)(C)Cn2cc(CCCCCCCCCCCCCCCCCC(=O)NCCCN(CC(=O)NCCN)CC(=O)NCCN)nn2)c1
Hello, I need these entries ordered by EC50, highest reading first. Thanks! // format: requested-order list of labels
1, 4, 3, 2
